System: U-2932
run description: growth inhibition by drug alone (1 - RLU/untreated control) (fraction); higher = stronger inhibition
recorded conditions: 10 nM; time (day): 4; 177Lu-lilotomab satetraxetan 0 ug/ml
readout kind: growth inhibition by drug alone

| compound | quantitative result |
| --- | --- |
| CC#C[C@]1(O)CC[C@H]2[C@@H]3CCC4=CC(=O)CCC4=C3[C@@H](c3ccc(N(C)C)cc3)C[C@@]21C | -0.0767 |
| CCC(C)n1ncn(-c2ccc(N3CCN(c4ccc(OCC5COC(Cn6cncn6)(c6ccc(Cl)cc6Cl)O5)cc4)CC3)cc2)c1=O (stereo not drawn) [Itraconazole (Sporanox)] | 0.0704 |
| S=C(NCc1ccc2c(c1)OCO2)N1CCN(c2ncnc3c2oc2ccccc23)CC1 | 0.0926 |
